Assayed System: T1, rat serum albumin (rat, UniProt P02770 25-608)
T1 construct: bought protein, amine-coupled to a CM5 chip; also called Rat SA; RSA
Experiment: SPR (Biacore 8K), albumin immobilised, 25 C, 1:1 kinetics
Parameter Measured: pKd
Numbers only, as −log10 of the molar value.

INS Analog 24 (other, single-chain insulin B-L2-A-L1-VHH fusion; also called Ex. 24) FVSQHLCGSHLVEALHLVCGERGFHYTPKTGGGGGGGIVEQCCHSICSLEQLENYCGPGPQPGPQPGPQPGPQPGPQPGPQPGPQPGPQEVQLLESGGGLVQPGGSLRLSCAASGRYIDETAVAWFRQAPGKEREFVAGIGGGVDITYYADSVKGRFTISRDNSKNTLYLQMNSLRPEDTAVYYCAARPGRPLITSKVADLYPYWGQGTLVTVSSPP = 7.40

Take each entry in turn and give its pKd.
1. INS Analog 27 (other, single-chain insulin B-L2-A-L1-VHH fusion; also called Ex. 27) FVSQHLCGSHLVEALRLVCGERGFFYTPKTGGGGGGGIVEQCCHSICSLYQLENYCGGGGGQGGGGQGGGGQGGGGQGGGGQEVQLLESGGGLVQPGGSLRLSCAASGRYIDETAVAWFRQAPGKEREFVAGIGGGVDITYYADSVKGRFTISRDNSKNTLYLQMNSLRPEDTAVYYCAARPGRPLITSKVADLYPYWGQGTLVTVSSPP
2. INS Analog 23 (other, single-chain insulin B-L2-A-L1-VHH fusion; also called Ex. 23) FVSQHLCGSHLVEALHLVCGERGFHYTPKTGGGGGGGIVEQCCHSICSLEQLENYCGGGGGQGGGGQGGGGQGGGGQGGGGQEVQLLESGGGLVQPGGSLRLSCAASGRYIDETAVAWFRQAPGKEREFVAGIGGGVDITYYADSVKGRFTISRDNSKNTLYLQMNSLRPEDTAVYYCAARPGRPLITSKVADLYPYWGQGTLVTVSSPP
3. INS Analog 26 (other, single-chain insulin B-L2-A-L1-VHH fusion; also called Ex. 26) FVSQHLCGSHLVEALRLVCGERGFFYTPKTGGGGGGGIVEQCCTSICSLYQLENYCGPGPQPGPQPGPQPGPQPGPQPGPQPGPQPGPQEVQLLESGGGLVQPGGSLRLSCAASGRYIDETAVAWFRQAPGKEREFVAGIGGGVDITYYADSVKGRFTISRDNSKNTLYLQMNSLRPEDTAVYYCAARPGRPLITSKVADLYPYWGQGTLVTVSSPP

Given back:
1: 7.49; 2: 7.28; 3: 7.49

Record pKd for all entries; do not skip any.
1. INS Analog 28 (other, single-chain insulin B-L2-A-L1-VHH fusion; also called Ex. 28) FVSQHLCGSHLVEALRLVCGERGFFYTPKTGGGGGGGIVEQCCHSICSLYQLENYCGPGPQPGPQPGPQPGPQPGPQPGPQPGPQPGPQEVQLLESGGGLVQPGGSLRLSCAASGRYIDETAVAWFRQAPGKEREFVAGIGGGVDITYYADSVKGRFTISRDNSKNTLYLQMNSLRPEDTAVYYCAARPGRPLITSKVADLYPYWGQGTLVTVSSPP
2. INS Analog 29 (other, single-chain insulin B-L2-A-L1-VHH fusion; also called Ex. 29) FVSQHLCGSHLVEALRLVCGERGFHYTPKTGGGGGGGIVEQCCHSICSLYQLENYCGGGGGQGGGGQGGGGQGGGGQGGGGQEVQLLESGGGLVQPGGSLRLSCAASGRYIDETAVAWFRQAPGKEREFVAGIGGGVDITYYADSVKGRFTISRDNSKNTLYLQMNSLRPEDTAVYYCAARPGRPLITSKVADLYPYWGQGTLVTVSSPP
3. INS Analog 25 (other, single-chain insulin B-L2-A-L1-VHH fusion; also called Ex. 25) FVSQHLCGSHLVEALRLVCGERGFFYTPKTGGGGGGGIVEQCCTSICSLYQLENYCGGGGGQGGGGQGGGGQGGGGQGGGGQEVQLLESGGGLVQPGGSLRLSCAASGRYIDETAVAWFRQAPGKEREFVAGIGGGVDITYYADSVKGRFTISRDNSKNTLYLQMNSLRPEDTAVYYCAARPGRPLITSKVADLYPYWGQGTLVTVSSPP

Given back:
1. 7.59
2. 7.49
3. 7.47
